Examples of molecules with documented inhibition follow.
TESTED_TARGET: Cysteinyl leukotriene receptor 1 (Homo sapiens)
Sequence (whole entry): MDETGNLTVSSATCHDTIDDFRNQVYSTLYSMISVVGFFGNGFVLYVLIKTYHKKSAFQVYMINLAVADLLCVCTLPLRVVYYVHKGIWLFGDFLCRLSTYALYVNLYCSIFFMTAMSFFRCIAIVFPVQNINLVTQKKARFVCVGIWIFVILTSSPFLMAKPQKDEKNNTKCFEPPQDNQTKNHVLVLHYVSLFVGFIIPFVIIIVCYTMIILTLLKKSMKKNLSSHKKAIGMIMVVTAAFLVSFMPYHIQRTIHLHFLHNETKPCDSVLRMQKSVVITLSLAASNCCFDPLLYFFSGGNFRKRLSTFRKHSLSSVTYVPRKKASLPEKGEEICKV
ASSAY_PROCEDURE: Antagonist activity at CysLT1 receptor (unknown origin) expressed in human dU937 cells assessed as reduction in LTD4-induced cytosolic free Ca2+ level at 1 uM after 30 mins by fluorescence assay relative to control
Type: functional, cell-based

Reference set (4 entries):
1) CCCCCCCCCCCCOc1ccc(/C=C/C(=O)c2cc(C(=O)O)ccc2OCC(=O)O)cc1    35.7%
2) CCCCCCCCCCCCOc1cccc(/C=C/C(=O)c2cc(C(=O)O)ccc2OCC(=O)O)c1    4.8%
3) O=C(O)COc1ccc(C(=O)O)cc1C(=O)/C=C/c1ccc(OCCCCOc2ccc(Cl)cc2)cc1    7%
4) CCCCCCCCOc1ccc(/C=C/C(=O)c2ccc(C(=O)O)cc2OCC(=O)O)cc1    8.6%

Here's the next entry for you.
Problem: inhibition for CCCCCCCCCCCCOc1ccc(/C=C/C(=O)c2ccc(C(=O)O)cc2OCC(=O)O)cc1 ?
Result: 10.6%

Where these numbers come from: ChEMBL document CHEMBL2413074
